koff: recorded values
- study target: T1, recombinant HIS-tagged cyno nectin-4 (Acro Biosystems Cat. No. NE4-C52H4) (cyno, UniProt A0A2K5WES1 32-349)
- T1 construct: Bought protein; HIS tag not described
- T1 sequence: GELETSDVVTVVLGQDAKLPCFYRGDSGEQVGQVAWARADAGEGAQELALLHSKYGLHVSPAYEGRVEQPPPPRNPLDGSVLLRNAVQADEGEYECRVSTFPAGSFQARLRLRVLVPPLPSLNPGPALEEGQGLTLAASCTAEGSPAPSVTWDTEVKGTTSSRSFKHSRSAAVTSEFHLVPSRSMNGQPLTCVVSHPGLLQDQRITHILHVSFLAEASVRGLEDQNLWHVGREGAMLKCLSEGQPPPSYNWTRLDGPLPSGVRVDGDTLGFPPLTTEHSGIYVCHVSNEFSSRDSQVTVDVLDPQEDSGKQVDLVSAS
- measurement protocol: SPR Biacore 8K+, ADC captured via anti-human Fc, nectin-4 analyte, 37 C;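 also: Nectin-4 injected over captured ADC at 0 to 600 nM for 2 min association, then 10 min dissociation, with a reference flow cell lacking ADC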
Please respond with the number in s⁻¹ and leave the unit unwritten.

Ab5 ADC (Ab5 conjugated as in Formula XI, DAR of 8) (antibody, human IgG1, kappa, L234A L235A, V domains shown, camptothecin analog linker-payload of Formula XI on cysteine thiols after full reduction, DAR of 8 per antibody; positions not given, Antibody-drug conjugate of Ab5; also called Ab5 (ADC column)) VH: QVQLVQSGAEVKKPGASVKVSCKASGYTFTSYYVHWVRQAPGQGLEWMGIINPSIISTSYAQKFQARVTMTRDTSTSTVYMELSSLRSEDTAVYYCARGLNFDAFDIWGQGTLVTVSS VL: DIQLTQSPSFLSASVGDRVTITCRASQGISSYLAWYQQKPGKAPKLLIYAASTLQSGVPSRFSGSGSGTEFTLTISSLQPEDFATYYCQQLNNYPFTFGQGTKVEIKR ... 0.0033

Okay, now this binder:
Data request, read-out koff, for Ab1a ADC (Ab1a conjugated as in Formula XI, DAR of 8) (antibody, human IgG1, kappa, L234A L235A, V domains shown, camptothecin analog linker-payload of Formula XI on cysteine thiols after full reduction, DAR of 8 per antibody; positions not given, Antibody-drug conjugate of Ab1a; also called Ab1a (ADC column)) VH: QVQLVQSGAQVKKPGASVKVSCKASGYTFTGYYIHWVRQAPGQGLEWMGWINPNSGGTNYAQKFQGRVTMTRDTSISTAYMELSRLRSDDTAVYFCAREDWDFDYWGQGTLVTVSS VL: EIVLTQSPGTLSLSPGERATLSCRTSQSVSSSYLAWYQQKPGQAPRLLIYGASNRATDIPDRFSGSGSGTDFTLTINRLEPEDFAVYYCQQYGSSPITFGQGTRLEIKR
0.026
